assay: Inhibition of quorum sensing system in Pseudomonas aeruginosa PAO1 MH602 harboring lasB promoter fused with GFP-ASV assessed as reduction in GFP-ASV reporter protein expression at 29 uM measured every 30 mins relative to control
The source made the active and inactive calls. No cut-off for these calls is given here.

Compound	inhibition
CCCCCCC(O[N+](=O)[O-])C1=CC(=C(Br)Br)OC1=O (stereo not given)	9.5%
CCCC(OC(=O)CO/N=[N+](\[O-])N1CCN(C(=O)OCC)CC1)C1=CC(=C(Br)Br)OC1=O (stereo not given)	22.8%
CCCC(OC(=O)CCCCCCCO[N+](=O)[O-])C1=CC(=C(Br)Br)OC1=O (stereo not given)	inactive
CCCC(SC(=O)CCCCCO[N+](=O)[O-])C1=CC(=C(Br)Br)OC1=O (stereo not given)	inactive
CCCC(SC(=O)CCCO[N+](=O)[O-])C1=CC(=C(Br)Br)OC1=O (stereo not given)	inactive
